Catalogue of molecules with associated %Inh
# System: TNK2;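 further: KINOMEscan kinase panel screen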
# TEST_SETTINGS: concentration: 1 μM, replicates: in singlicate; n = 1
Kindly provide the numeric value in % only, without the unit symbol.

O=C(Nc1n[nH]c2nc(-c3nccs3)c(Br)cc12)C1CCCC1: 4
COc1cc(Nc2nccc(N3CCC(NC(=O)Nc4cc(C)ccc4C)C3)n2)cc(OC)c1OC (centres unmarked): 15
O=C1NC(=O)C(N2CCc3ccccc32)=C1c1ccccc1Cl: 11
CC(=O)Nc1nc2cnc(Nc3cc(NC(=O)c4cccc(CCC#N)c4)ccc3C)nc2s1: 9

Let's switch to this molecule now.
Determine its reported %Inh: Cc1cc(N2Cc3ccccc3C2)nc(Nc2ccc(S(=O)(=O)N3CCOCC3)cc2)n1.Cl
7
